Values were extracted from paper PMC7470945.

# target of assay: T1, SBDSco E156K (Streptomyces coelicolor, UniProt Q9L0M9 90-250, E156K)
# T1 sequence: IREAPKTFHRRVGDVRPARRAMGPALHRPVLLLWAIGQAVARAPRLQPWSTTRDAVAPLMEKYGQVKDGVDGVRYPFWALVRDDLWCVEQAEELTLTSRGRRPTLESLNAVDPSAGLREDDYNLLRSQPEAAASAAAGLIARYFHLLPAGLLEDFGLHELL
# protocol details: fluorescence polarization; FP: 20 mM Tris-HCl pH 8.0, 50 mM NaCl, 5% glycerol, 1 mM DTT, 5 nM probe, room temperature; EMSA: 20 mM Tris-HCl pH 8.0, 100 mM NaCl, 5% glycerol, room temperature, protein 4x DNA
# conditions: protein: recombinant; tags: 6xHis; label: 5'-FAM on one strand (FP); blunt
pKd: −log10 of the molar value.
In this section, each of the binders is paired with its reported pKd.

- binder: "PT-GAAC-10 RP (hemi-PT) (dsDNA, RP phosphorothioate between G4 and A5 of strand 1) DNA 1: GGCGAACGTG DNA 2: CACGTTCGCC"
  pKd: 6.53
- binder: "PT-GATC-10 RP (hemi-PT) (dsDNA, RP phosphorothioate between G4 and A5 of strand 1) DNA 1: GATGATCCTA DNA 2: TAGGATCATC"
  pKd: 6.43
